# Test system: Ehrlich cancer
# procedure text: Cancer proliferation and PGE in the cancer cells (Ehrlich)
# Assay type: in vivo, C57BL/6 mouse
# condition set: 100 mg/kg i.p. every other day, 14th day; control 1.30
measured property: Weight of cancer (g)
Please reply with the bare figure in g and do not write the unit itself.

COC(=O)c1ccccc1NC1O[C@H](CO)[C@@H](O)[C@H](O)[C@@H]1O (stereo partly drawn) [Specimen No. 11, Methyl o-aminobenzoate-N--D-mannoside] | 0.69
C[C@@H]1OC(Nc2ccc(C(=O)O)cc2)[C@H](O)[C@H](O)[C@H]1O (stereo partly drawn) [Specimen No. 8, Sodium p-aminobenzoate-N--L-rhamnoside] | 0.72
O=C(O)c1ccc(NC2OC[C@H](O)[C@H](O)[C@H]2O)cc1 (stereo partly drawn) [Specimen No. 10, Sodium p-aminobenzoate-N--L-arabinoside] | 0.70

# context switch: different compound, same Weight of cancer
Query: Give reported Weight of cancer value for O=C(O)c1ccc(NC2O[C@H](CO)[C@@H](O)[C@H](O)[C@H]2O)cc1 (stereo partly drawn) [Specimen No. 5, Sodium p-aminobenzoate-N--D-glucoside]
Reply: 0.70
